Source of measurements: paper PMC12040169

Answer each item with its documented viability at 28.5 h, 10 µM.
Protocol Details: in vitro
Assay Setup: human, hela cells, % viability
A number alone suffices; assume %.

For record CC(C)(C)NC(=O)CCn1c(-c2ccncc2)cc2cccnc21 the listed viability at 28.5 h, 10 µM is 95.4

For record CC(C)(C)C(=O)N1CCC(c2nnc3n2CCCCC3)CC1 the listed viability at 28.5 h, 10 µM is 88.7

For record Cn1nc(-c2ccc(S(=O)(=O)n3cc(C#N)c(N)n3)s2)cc1C(F)(F)F the listed viability at 28.5 h, 10 µM is 91.2

For record O=C(N[C@H]1C[C@H]2C(=O)NC[C@@H](CCC(=O)N3CCCCC3)N2C1)c1cccc(F)c1 the listed viability at 28.5 h, 10 µM is 85

For record Cc1ccc(C(=O)O)cc1S(=O)(=O)NCCCO the listed viability at 28.5 h, 10 µM is 96.9

For record O=C(NCC1CCCO1)NC(=O)c1nsc2ccccc12 (stereo not drawn) the listed viability at 28.5 h, 10 µM is 113

For record CCN(CC(=O)NC(C)(C)C)S(=O)(=O)c1cccc(C#N)c1 the listed viability at 28.5 h, 10 µM is 114

For record O=C(NCc1cccnc1)c1ccc2c(c1)C(=O)N(Cc1ccco1)C2=O the listed viability at 28.5 h, 10 µM is 88.6

For record CC1=CC(C)C2C(=O)N(c3ccc(C(=O)O)cc3)C(=O)C2C1 (stereo not drawn) the listed viability at 28.5 h, 10 µM is 87

---

Protocol Details: in vitro
Assay Setup: human, hela cells, % viability
Answer each item with its documented viability at 28.5 h, 10 µM.
A number alone suffices; assume %.

For record Cc1cc(C)cc(CNC(=O)N(CCCO)Cc2ccncc2)c1 the listed viability at 28.5 h, 10 µM is 93.7

For record CC(=O)N1CCC[C@H]1Cn1nc(-c2cccs2)ccc1=O the listed viability at 28.5 h, 10 µM is 78.1

For record Cc1ccc(C)n1-c1ccc(C(=O)OCC(=O)c2cccc([N+](=O)[O-])c2)cc1 the listed viability at 28.5 h, 10 µM is 97.8

For record COc1cc(C(c2c[nH]c3ccccc23)c2c[nH]c3ccccc23)c(Br)cc1OC(C)=O the listed viability at 28.5 h, 10 µM is 107

For record CCN(Cc1ccc(C#N)cc1F)C(=O)Nc1cc(C)nn1C the listed viability at 28.5 h, 10 µM is 94.2

For record COC(=O)c1ccccc1Oc1nc(OC)cc(OC)n1 the listed viability at 28.5 h, 10 µM is 110

For record O=C(NCc1cccc2ccccc12)N1CCN(Cc2ccccc2)CC1 the listed viability at 28.5 h, 10 µM is 92.2

For record C#CCOc1cccc2oc(CCC)cc(=O)c12 the listed viability at 28.5 h, 10 µM is 87.6

For record COCCn1c(SCC(=O)N2CCNC2=O)nc2ccccc21 the listed viability at 28.5 h, 10 µM is 97.3

For record O=C1CC(c2ccccc2)CC(=O)N1c1nnn[nH]1 the listed viability at 28.5 h, 10 µM is 85.5

For record CC(C)(C)OCc1[nH]n(CCc2ccccc2)c(=O)c1Cc1c(Cl)cccc1Cl the listed viability at 28.5 h, 10 µM is 89.3

For record O=C(O)C1CC(=O)N(CCc2ccccc2)/C(=N/CCc2ccccc2)S1 (centres unmarked) the listed viability at 28.5 h, 10 µM is 89.2

For record Cc1[nH]c(=O)[nH]c(=O)c1S(=O)(=O)N1CCOCC1 the listed viability at 28.5 h, 10 µM is 96.1

For record O=C(Nc1nnc(C(F)(F)F)s1)c1ccc(F)c(Cl)c1 the listed viability at 28.5 h, 10 µM is 92.2

For record COCCC(=O)NC(Cc1cccs1)c1nccs1 (centres unmarked) the listed viability at 28.5 h, 10 µM is 83.3

For record Cc1c(C(=O)O)ccc2c1N[C@@H](c1ccc(OCC#N)cc1)C1CC=CC21 (some centres unmarked) the listed viability at 28.5 h, 10 µM is 89.2

For record COc1cc2ncnc(NCc3ccccc3)c2cc1OC the listed viability at 28.5 h, 10 µM is 79.7

For record O=C(O)C(c1c[nH]c2ccccc12)N1CCN(S(=O)(=O)c2ccccc2)CC1 (centres unmarked) the listed viability at 28.5 h, 10 µM is 83.6

For record CCNC(=O)N(C)C1CCN(c2ncnc3ccccc23)CC1 the listed viability at 28.5 h, 10 µM is 110

For record CCSc1nnc(-c2cccc(C)c2)n1CC1CCCO1 (centres unmarked) the listed viability at 28.5 h, 10 µM is 93.1

---

Protocol Details: in vitro
Assay Setup: human, hela cells, % viability
Property Label: viability at 28.5 h, 10 µM (%)
A number alone suffices; assume %.

For record CC(O)c1nc2ccccc2n1C (centres unmarked) the listed viability at 28.5 h, 10 µM is 94.9

For record Cc1nn(C)c(C)c1NC(=O)CSc1nnc(-c2cccc(Br)c2)n1-c1ccccc1 the listed viability at 28.5 h, 10 µM is 103

For record CCC(C)[C@H](NC(=O)N1CCN(C(=O)c2cc3ccccc3[nH]2)CC1)C(=O)O (some centres unmarked) the listed viability at 28.5 h, 10 µM is 91

For record CCOC(=O)c1c(CSc2ccc(Cl)cc2)n(C)c2cc(Br)c(O)c(CN(C)C)c12 [CBK217489C] the listed viability at 28.5 h, 10 µM is 108

For record CCCn1c(C)nnc1CN(CC1CCCO1)C1CCCC1 (centres unmarked) the listed viability at 28.5 h, 10 µM is 94.8

---

Answer each item with its documented viability at 28.5 h, 10 µM.
Protocol Details: in vitro
Assay Setup: human, hela cells, % viability
A number alone suffices; assume %.

For record CCCC(=O)c1ccc(S(=O)(=O)N2CCCN(Cc3cccnc3N3CCOCC3)CC2)cc1 the listed viability at 28.5 h, 10 µM is 93.9

For record COC(=O)c1c(NC(=O)CC2Nc3ccccc3NC2=O)sc2c1CCC2 (centres unmarked) [CBK269307A] the listed viability at 28.5 h, 10 µM is 93.7

For record Nc1nc2cccnc2cc1-c1ccsc1 the listed viability at 28.5 h, 10 µM is 85.8

For record CCOC(=O)C(NCc1nc(-c2cccc(C(F)(F)F)c2)no1)C(C)C (centres unmarked) the listed viability at 28.5 h, 10 µM is 93

For record O=C(O)CCc1ccc(NS(=O)(=O)c2ccc(N3CCCC3=O)cc2)cc1 the listed viability at 28.5 h, 10 µM is 116

---

System: HeLa
Assay Setup: bulk resorufin, single well, 28.5 h, 10 µM, Bulk resorufin fluorescence
Property Label: % viability
Mention the unit after the number when you answer.

For record C[C@H](Cn1nc2c(cc1=O)CCCCC2)NC(=O)c1ccc(F)cc1 [CBK284557] the listed % viability is 93.4%

For record CN1CCN(S(=O)(=O)c2cccc3cccnc23)CC1 [CBK051241] the listed % viability is 93.2%

For record C[C@H]1CN2CCCC2CN1Cc1ccccc1F (some centres unmarked) [CBK285450] the listed % viability is 103%

For record N#Cc1cccc(-c2ccc3c(c2)COC(C2CCN(C(=O)OCc4ccccc4)CC2)O3)c1 (centres unmarked) [CBK144640] the listed % viability is 93%

For record COc1cccc2sc(NC(=O)c3ccc4c(c3)OCCO4)nc12 [CBK149285] the listed % viability is 92.1%

For record O=C(NC[C@H]1CCCN(C(=O)c2cccnc2)C1)c1cccs1 [CBK284264] the listed % viability is 90.3%

For record FC(F)(F)c1cccc(-c2cnn(-c3ccncc3)n2)c1 [CBK112668] the listed % viability is 93.6%

For record O=C(O)CCc1nn2c(-c3ccccc3)c(-c3ccccc3)nc2[nH]c1=O [CBK013564] the listed % viability is 94.1%

For record O=C(Nc1cccnc1)c1cnc2cc(C(F)(F)F)ccc2c1O [CBK107474T] the listed % viability is 88%

For record C=CCNC(=O)[C@H]1C=CCN1S(=O)(=O)c1ccc(F)cc1 [CBK282320] the listed % viability is 89.7%

For record CC(C)(CC(=O)O)CC(=O)Nc1cccc(CCc2ccncc2)c1 [CBK286989] the listed % viability is 84.8%

For record CCN(CC)C(=O)Cn1c([C@@H]2CCCO2)cc2cccnc21 [CBK282283] the listed % viability is 90.4%

For record Cn1cc(C(=O)N2C3CCC(C3)[C@@H]2COc2ccc(F)cc2)cn1 (some centres unmarked) [CBK284605] the listed % viability is 112%

For record CCn1cc(C(=O)NN)c(=O)c2cc(F)c(N3CCOCC3)cc21 [CBK263050] the listed % viability is 107%

For record CS(=O)(=O)N1CC=C[C@H]1C(=O)NCc1ccc(F)cc1 [CBK284270] the listed % viability is 87.2%

For record COc1ccc(CN2CCCN(c3nccc(OCCN4CCOCC4)n3)CC2)cc1 [CBK083932] the listed % viability is 108%

For record CC[C@H](Cn1ncc2ccccc2c1=O)NC(=O)Cc1ccsc1 [CBK284306] the listed % viability is 88.7%

For record O=C(NCCc1ccccc1)[C@H]1C=CCN1C(=O)c1ccccc1F [CBK285471] the listed % viability is 104%

For record C[C@@H]1CN2CCCC2CN1Cc1ccc2ccccc2n1 (some centres unmarked) [CBK285408] the listed % viability is 104%

For record c1cnc2c(c1)cc([C@@H]1CCCO1)n2CCN1CCCCC1 [CBK282273] the listed % viability is 109%
